Answer each item with its documented switch fluorescence ratio.
Tested on: ATP;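 also: ATP exposure 15 min at 22 °C before imaging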
Assay: switch fluorescence ratio, 500 uM ATP over buffer (Cy3 cluster intensity, sum of 5 cycles each) (fold (ratio)); higher = stronger signal-on switching upon ATP binding; sequences stand for … in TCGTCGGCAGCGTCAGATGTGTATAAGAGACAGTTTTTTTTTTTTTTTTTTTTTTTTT…TC
Settings: aptamer strand: ATP DNA aptamer (quencher-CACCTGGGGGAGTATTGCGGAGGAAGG + anchor), 100 nM annealed; ATP concentration: 500 uM
Give bare numbers.

// worked examples, switch fluorescence ratio included
>>> print(df.to_string())
   sequence_entry  target_or_test_system  number
0      CCCATGGGGG                    ATP    1.01
1      CCAAATGAGT                    ATP   0.989
2      GTAGGAGCCG                    ATP   0.999
3      ATATCCTTGG                    ATP   0.984
4      AATGGCCGCG                    ATP    1.08
5      AGTTGCGGGA                    ATP    1.01

Please go through the list and note switch fluorescence ratio for each sequence.
1. TGTTGTATAT
2. TCTATGATAG
3. ACAGACTGAA
4. ATGTGGTGGT

Response line:
[1, 0.971, 1.16, 1]

---

System: ATP;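 also: ATP exposure 15 min at 22 °C before imaging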
Assay: switch fluorescence ratio, 500 uM ATP over buffer (Cy3 cluster intensity, sum of 5 cycles each) (fold (ratio)); higher = stronger signal-on switching upon ATP binding; sequences stand for … in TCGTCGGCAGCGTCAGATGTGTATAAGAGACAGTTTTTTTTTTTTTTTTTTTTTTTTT…TC
Details: aptamer strand: ATP DNA aptamer (quencher-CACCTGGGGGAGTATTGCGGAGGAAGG + anchor), 100 nM annealed; ATP concentration: 500 uM
Provide the reported switch fluorescence ratio of each item.

>>> df
   sequence_entry            outcome_measure  result
0      CTGAATGCAG  switch fluorescence ratio    1.07

Required: switch fluorescence ratio, one value per sequence below.
1. AAAGCGGATG
2. ACGCTGGGGA
3. TACTCACGAA
4. TTAAATTGCG
5. GCATTGTCAA

Response line:
1. 0.986
2. 0.993
3. 1.42
4. 0.994
5. 0.992

---

System: ATP;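 also: ATP exposure 15 min at 22 °C before imaging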
Test: switch fluorescence ratio, 500 uM ATP over buffer (Cy3 cluster intensity, sum of 5 cycles each) (fold (ratio)); higher = stronger signal-on switching upon ATP binding; sequences stand for … in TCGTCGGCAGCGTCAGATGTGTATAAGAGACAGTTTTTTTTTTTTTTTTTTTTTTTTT…TC
Conditions: aptamer strand: ATP DNA aptamer (quencher-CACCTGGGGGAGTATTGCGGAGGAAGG + anchor), 100 nM annealed; ATP concentration: 500 uM
outcome.measure: switch fluorescence ratio
Give bare numbers.

   sequence_entry            outcome_measure  number
0      GATAAGGGGA  switch fluorescence ratio    1.03
1      ACGGGTATTA  switch fluorescence ratio   0.991
2       TTTTAGGAT  switch fluorescence ratio       1
3      ACGGAAGTTA  switch fluorescence ratio    1.02
4      AAGTCTTTCG  switch fluorescence ratio    1.01

Kindly give each listed record's switch fluorescence ratio.
1. CAATTGGGTG
2. ATTTCGGTGG
3. TTCCGGAAAA
4. GGGCCGGAAA
5. GGCCGTGGGC
6. AGTGTTAGTT
7. TAGGAAAAAT
8. GGGGGCCAGG

Response line:
1. 1.06
2. 1.06
3. 1.01
4. 1.01
5. 1
6. 1
7. 1.09
8. 1.02

Prompt line: Suppose we examine the sequence `GATTCGGGCG` ; what switch fluorescence ratio value has been reported?
Response line: 1
